Assay System: A3G NPM ins194_195NPM (UniProt Q9HC16)
Sequence (Q9HC16 whole entry): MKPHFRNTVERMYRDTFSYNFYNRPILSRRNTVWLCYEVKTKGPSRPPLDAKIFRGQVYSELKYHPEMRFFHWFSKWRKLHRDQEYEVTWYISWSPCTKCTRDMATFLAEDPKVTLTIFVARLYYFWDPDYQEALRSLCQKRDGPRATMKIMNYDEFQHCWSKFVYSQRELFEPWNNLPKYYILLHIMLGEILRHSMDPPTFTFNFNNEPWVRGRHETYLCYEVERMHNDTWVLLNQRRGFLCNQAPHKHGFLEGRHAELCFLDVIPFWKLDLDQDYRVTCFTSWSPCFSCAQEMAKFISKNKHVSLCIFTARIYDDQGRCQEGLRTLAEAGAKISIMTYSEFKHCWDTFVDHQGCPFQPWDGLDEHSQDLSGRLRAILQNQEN
Test Details: fluorescence anisotropy
Conditions: RT buffer: 50 mM Tris pH 7.4, 40 mM KCl, 10 mM MgCl2, 1 mM DTT; 10 nM F-labeled DNA; 21 C
Value Type: Kd

{"columns": ["Chain Sequence", "Value Type", "Endpoint Value"],
 "data": [
  ["GAATATATGTTGAGACCCAAAGTAATGAGAGATTGATTAGATGAGTGTAATGTGATATATGTGTATGAAAGATATAAGACCCAAAGAGTAAAGTTGTTAATGTGTGTAGATATGTTAA [A3G - 63 (118 nt, CCC)]", "Kd", "56 nM"]
]}
